Recorded aptazyme ON/OFF ratio by entry
B1: Pistol ribozyme (parent)
chain: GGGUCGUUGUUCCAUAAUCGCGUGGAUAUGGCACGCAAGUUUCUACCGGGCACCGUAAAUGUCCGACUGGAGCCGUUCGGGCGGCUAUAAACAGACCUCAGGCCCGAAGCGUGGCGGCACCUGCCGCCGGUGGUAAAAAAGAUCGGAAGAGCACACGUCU

# Variants of: B1
# protocol notes: aptazyme ON/OFF ratio, guanine; higher = stronger switching; co-transcriptional cleavage with and without guanine

mutant id	aptazyme ON/OFF ratio
U7G U8C G9U U11C C12G C13U	1.32
U8G G9A U11A	1.59
U7A G9C U10G U11A C12U C13A	1.06
U8A U11C C12U C13U	1.37
U7C U8C G9C U10G U11G C12A C13A	1.08
G9C U10G	2.17
U7C U8C G9A U10C U11G C13A	1.11
U8C G9C U10G U11A C12G C13A	1.08
U8A G9C U10G C12U C13G	1.11
U8G G9U U10C U11A C12U C13G	1.11
U8G U10G C13U	1.11
